- tested-target: Mitogen-activated protein kinase 14 (Homo sapiens) (UniProt Q16539)
- Sequence (Q16539 whole entry): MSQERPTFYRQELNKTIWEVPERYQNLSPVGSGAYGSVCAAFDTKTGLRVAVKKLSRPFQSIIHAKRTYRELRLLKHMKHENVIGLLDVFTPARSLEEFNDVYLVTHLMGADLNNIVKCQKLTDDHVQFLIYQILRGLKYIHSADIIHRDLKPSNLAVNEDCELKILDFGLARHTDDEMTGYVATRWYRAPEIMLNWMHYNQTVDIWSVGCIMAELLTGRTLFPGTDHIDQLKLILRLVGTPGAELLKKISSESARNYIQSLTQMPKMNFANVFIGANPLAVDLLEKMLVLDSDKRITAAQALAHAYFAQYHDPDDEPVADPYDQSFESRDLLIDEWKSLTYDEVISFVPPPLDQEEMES
- protocol-notes: Inhibition of p38alpha at 10 uM by HTRF assay relative to control
Assign class 1 whenever inhibition does not fall below 1%; assign class 0 whenever it does.

>>> qualitative_label("O=C(NCc1cccnc1)c1cccc(-c2ccc(Nc3ccc4ncsc4c3)nn2)c1")
"class 0"
>>> qualitative_label("O=C(NC[C@@H]1CCCO1)c1cccc(Nc2nccc(Nc3ccc4ncsc4c3)n2)c1")
"class 1"
>>> qualitative_label("CN(CCc1ccccn1)C(=O)[C@@H]1CCCN1c1nccc(Nc2ccccc2)n1")
"class 0"
>>> qualitative_label("CN(CCc1ccccn1)C(=O)c1cccc(Nc2nccc(Nc3ccc4ncsc4c3)n2)c1")
"class 1"
>>> qualitative_label("Cc1cccc(Nc2nccc3c2CN(C(=O)c2cc(C)n(C)c2C)CC3)c1")
"class 0"
>>> qualitative_label("Clc1ccc2sc(CN3CCN(c4ncnc5c4CN(Cc4ccccc4)CC5)CC3)cc2c1")
"class 1"
>>> qualitative_label("Cc1cccc(N(C)c2cc(Nc3ccc(CC(=O)Nc4ccc5ncsc5c4)cc3)ncn2)c1")
"class 1"
>>> qualitative_label("COC[C@@H]1CCCN1C(=O)C1CCCN1c1cc(Nc2cccc(Br)c2)ncn1 (stereo partly drawn)")
"class 0"
>>> qualitative_label("Cc1cccc(Oc2ccnc(N3CCC[C@H]3C(=O)NCCCn3ccnc3)n2)c1")
"class 1"
>>> qualitative_label("Cc1cccc(N(C)c2cc(Nc3cccc(C(=O)N4CCCC5CCCCC54)c3)ncn2)c1 (stereo not drawn)")
"class 0"
>>> qualitative_label("COC(=O)C(CO)NC(=O)[C@@H]1CCCN1c1nccc(Oc2cccc(C)c2)n1 (stereo partly drawn)")
"class 1"
>>> qualitative_label("O=C(c1nc(SCc2ccc(Cl)cc2)n2ccccc12)N1CCN(c2cc(Nc3cccc(Br)c3)ncn2)CC1")
"class 1"
>>> qualitative_label("COC[C@@H]1CCCN1C(=O)[C@@H]1CCCN1c1cc(Nc2cccc(OC)c2)nc(N)n1")
"class 1"
>>> qualitative_label("Cc1cc(C(=O)N2CCN(c3ncnc4c3CN(Cc3ccccc3)CC4)CC2)c(C)n1C")
"class 0"
>>> qualitative_label("Cc1cccc(N(C)c2cc(Nc3cccc(C(=O)NCc4ccncc4)c3)ncn2)c1")
"class 1"
>>> qualitative_label("Cc1cccc(Oc2ccnc(N3CCN(C(=O)c4c(C)noc4C)CC3)n2)c1")
"class 0"
